Where these numbers come from: patent US20200223906A1

measured.target: T1, RSV F subtype A, furin-cleaved ectodomain stabilized in the postfusion conformation (F ΔFP) (Respiratory syncytial virus subtype A, UniProt P03420 26-109; P03420 147-524)
T1 construct: extracellular domain; Trimeric soluble antigen; also called Postfusion subtype A
protocol.details: BLI, IgG on AHQ sensor, 100 nM antigen
Hi there, I'd appreciate the recorded pKd for every entry that follows.
Give bare numbers, as −log10 of the molar value.

ADI-18922 (antibody, V domains shown, full-length IgG from yeast; also called Antibody Number 276; Ab # 276) VH: QVQLQESGPGRVKPSETLSLTCSVADGSISSGHYYWGWVRQPPGKGLEWIATIHDSGATYYNPSLQSRVTISVDTSKNQFSLKVNSVTAADTAVYYCASRRGSGWFFDSWGQGTLVTVSS VL: DIVLTQSPATLSVSPGERVTLSCRASHSVNYNLAWYQQKPGQAPRLLIYGSSTRATGLPARFSGSGSGTEFTLTISSLQSEDFAIYYCQQYNNWPPGGTFGQGTKVEIK : 9.49
ADI-18896 (antibody, V domains shown, full-length IgG from yeast) VH: EVQLLESGGGVVQSGRSLRLSCAASGFTFSDNGMHWVRQAPGKGLEWVAGIFYDGSNKQYADSVKGRFTISRDNSKSTLYLQMNSLRAEDTAVYYCARAPYDIWSGYCLDYWGQGTLVTVSS VL: DIQMTQTPATLSMSPGERATLSCRASQSVNNNLAWYQQRPGQAPRLLIYGASTRATGIPARFSGSGSETEFTLTISSLQSEDFAVYHCQQYSIWPQTFGQGTKLEIK : 9.55

Given the binder ADI-18955 (antibody, V domains shown, full-length IgG from yeast; also called Antibody Number 306; Ab # 306) VH: EVQLVESGGGVVQSGRSLRLSCAASGFIFSDNGMHWVRQAPGKGLEWVAGIFYDGSNKQYADSVKGRFTISRDNSKNTLYLQMKSLRAEDTAVYYCARAPYDIWSGYCLDYWGQGTLVTVSS VL: DIQVTQSPATLSMSPGERATLSCRASQSVNNNLAWYQQRPGQAPRLLIYGASTRATGIPARFSGSGSETEFTLTISSLQSEDFAVYHCQQYSIWPQTFGQGTKVEIK , what is its reported pKd?
9.59
